Kindly supply the reported IC50 values for the records listed here.
- Study System: human MCH-1 receptor (Homo sapiens)
- Construct: expressed in transfected cells
- Method Summary: Ca2+ mobilization experiment for the MCH-1 receptor (FLIPR), inhibition of MCH-induced Ca2+ mobilization
- Format: cell-based
- Condition Context: CHO cells stably expressing human MCH-1 receptor, inhibition of MCH-induced Ca2+ response, read-out: MCH-1 pIC50 (converted)
Answers are plain numbers, in nM.

Consider the worked cases shown below.
{"Compound": "NC(=O)C1CCN(CCOc2ccc(-n3ccnc(NCCOc4ccccc4)c3=O)cc2)CC1 [1-41]", "IC50, nM": 631}
{"Compound": "COc1cc(-n2ccnc(NCCc3ccccc3)c2=O)ccc1N1CCC(N2CCC(O)C2)C1 (centres unmarked) [3-20]", "IC50, nM": 126}
{"Compound": "COc1cc(-n2ccnc(NCCc3ccccc3)c2=O)ccc1OCCN1CCC(O)C1 (centres unmarked) [3-45]", "IC50, nM": 31.6}
{"Compound": "COc1cc(-n2ccnc(NCCc3ccccc3)c2=O)ccc1OCCN(C)CCO [3-37]", "IC50, nM": 50.1}

Shift focus to the following entry.
State, in one line, measured IC50 of COc1cc(-n2ccnc(NCCOc3ccccc3Cl)c2=O)ccc1OCCN1CCCC1 [2-28] 79.4

====

- Study System: human MCH-1 receptor (Homo sapiens, UniProt Q99705)
- Construct: expressed in transfected cells
- Sequence (Q99705 whole entry): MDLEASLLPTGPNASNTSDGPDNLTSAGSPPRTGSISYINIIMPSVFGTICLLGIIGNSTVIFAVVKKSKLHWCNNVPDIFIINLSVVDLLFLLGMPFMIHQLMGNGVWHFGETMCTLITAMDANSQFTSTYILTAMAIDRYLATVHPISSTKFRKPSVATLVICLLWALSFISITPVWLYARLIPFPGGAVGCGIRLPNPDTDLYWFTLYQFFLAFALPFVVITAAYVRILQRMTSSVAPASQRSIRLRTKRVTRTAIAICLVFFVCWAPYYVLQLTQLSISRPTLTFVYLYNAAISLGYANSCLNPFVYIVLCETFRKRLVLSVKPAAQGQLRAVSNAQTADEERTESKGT
- Method Summary: Ca2+ mobilization experiment for the MCH-1 receptor (FLIPR), inhibition of MCH-induced Ca2+ mobilization
- Assay type: cell-based
- Condition Context: CHO cells stably expressing human MCH-1 receptor, inhibition of MCH-induced Ca2+ response, read-out: MCH-1 pIC50 (converted)
Kindly state IC50 for each of the entries shown.
Answers are plain numbers, in nM.

{"Compound": "COc1cc(-n2ccnc(NCCCOc3ccccc3Cl)c2=O)ccc1OCCN1CCCC1", "IC50 [nM]": 63.1}
{"Compound": "COc1cc(-n2ccnc(NCCOc3ccccc3)c2=O)ccc1OCCN(C)C(=O)c1ccccc1", "IC50 [nM]": 251}
{"Compound": "O=c1c(NCCOc2ccccc2)nccn1-c1ccc(OCCCN2CCCC2)cc1", "IC50 [nM]": 3160}

Please state IC50 for every compound in the list that follows.
1. O=c1c(NCCOc2ccccc2)nccn1-c1ccc(OCCN2CCOCC2)cc1
2. COc1cc(-n2ccnc(NCCCOc3ccccc3)c2=O)ccc1OC1CCNCC1

1: 501; 2: 31.6

====

- Study System: human MCH-1 receptor (Homo sapiens, UniProt Q99705)
- Construct: expressed in transfected cells
- Method Summary: Ca2+ mobilization experiment for the MCH-1 receptor (FLIPR), inhibition of MCH-induced Ca2+ mobilization
- Format: cell-based
- Condition Context: CHO cells stably expressing human MCH-1 receptor, inhibition of MCH-induced Ca2+ response, read-out: MCH-1 pIC50 (converted)
Endpoint: IC50

{"Compound": "COc1cc(-n2ccnc(NCCc3ccccc3)c2=O)ccc1N1CCN(C)CC1", "Study System": "human MCH-1 receptor (Homo sapiens, UniProt Q99705)", "Endpoint": "IC50", "Assay Result": "39.8 nM"}
{"Compound": "COc1cc(-n2ccnc(NCCc3ccccc3)c2=O)ccc1OC1CCN(C)C1 (stereo not shown)", "Study System": "human MCH-1 receptor (Homo sapiens, UniProt Q99705)", "Endpoint": "IC50", "Assay Result": "79.4 nM"}
{"Compound": "O=c1c(NCCc2ccccc2)nccn1-c1ccc(OCCN2CCC(O)CC2)c(Cl)c1", "Study System": "human MCH-1 receptor (Homo sapiens, UniProt Q99705)", "Endpoint": "IC50", "Assay Result": "25.1 nM"}
{"Compound": "O=c1c(NCCOc2ccccc2)nccn1-c1ccc(OCCN2CCC(F)CC2)cc1", "Study System": "human MCH-1 receptor (Homo sapiens, UniProt Q99705)", "Endpoint": "IC50", "Assay Result": "200 nM"}

# map each compound to its IC50
1. CC(=O)N(C)C1CCN(c2ccc(-n3ccnc(NCCc4ccccc4)c3=O)cc2)C1 (stereo not shown)
2. O=c1c(NCCOc2ccccc2)nccn1-c1ccc(OCCN2CCCC2)c(Cl)c1
3. CC(C)C(=O)N(C)C1CCN(c2ccc(-n3ccnc(NCCc4ccccc4)c3=O)cc2)C1 (stereo not shown)

["63.1 nM", "7940 nM", "100 nM"]

Please state, for each entry, its recorded IC50.
1. COc1cc(-n2ccnc(NCCOc3ccccc3)c2=O)ccc1OCCN(C)C(=O)CN(C)C
2. CC(=O)c1cc(-n2ccnc(NCCOc3ccccc3)c2=O)ccc1OCCN1CCCC1
3. COc1cc(-n2ccnc(NCCCOc3cccc(C#N)c3)c2=O)ccc1OCCN1CCCC1
4. COc1ccc(OCCCNc2nccn(-c3ccc(OCCN4CCCC4)c(OC)c3)c2=O)cc1

["200 nM", "100 nM", "79.4 nM", "2000 nM"]

Quick request: IC50 for each listed item, please.
1. COc1cc(-n2ccnc(NCCc3ccccc3)c2=O)ccc1C=CCN1CCOCC1
2. COc1cc(-n2ccnc(NCCc3ccccc3)c2=O)ccc1OCCNC1CC1
3. CN(C)CCN(C)CCOc1ccc(-n2ccnc(NCCOc3ccccc3)c2=O)cc1
4. COc1cc(-n2ccnc(NCCOc3ccccc3)c2=O)ccc1OCCN1CCC(F)(F)CC1
5. CN[C@@H]1CCN(c2ccc(-n3ccnc(SCCc4ccccc4)c3=O)cc2OC)C1
6. COc1cc(-n2ccnc(NCCOc3ccccc3)c2=O)ccc1OCCN1CCCC1

1. 39.8 nM
2. 25.1 nM
3. > 10000 nM
4. 50.1 nM
5. 12.6 nM
6. 63.1 nM

Dear colleague, could you send me IC50 for each of the items below? Thanks.
1. CN(C)CCCNc1ccc(-n2ccnc(NCCOc3ccccc3)c2=O)cc1
2. COc1cc(-n2ccnc(N(C)CCc3ccccc3)c2=O)ccc1OCCN1CCCC1
3. COc1cc(-n2ccnc(NCCc3ccccc3Br)c2=O)ccc1OCCN1CCCC1
4. COc1cc(-n2ccnc(NCCc3ccccc3)c2=O)ccc1OCCN1C(C)COCC1C (stereo not shown)
5. COc1cc(-n2ccnc(N3CCC(c4ccc(Cl)c(Cl)c4)C3)c2=O)ccc1OCCN1CCCC1 (stereo not shown)
6. CC(=O)N1CCN(CCOc2ccc(-n3ccnc(NCCc4ccccc4)c3=O)cc2Cl)CC1
7. CCCN1CCC(Nc2ccc(-n3ccnc(NCCc4ccccc4)c3=O)cc2OC)C1 (stereo not shown)

1: 501 nM; 2: 501 nM; 3: 316 nM; 4: 39.8 nM; 5: 794 nM; 6: 50.1 nM; 7: 39.8 nM

====

I'd appreciate it if you could supply IC50 values for the items below.
- Study System: human MCH-1 receptor (Homo sapiens, UniProt Q99705)
- Construct: expressed in transfected cells
- Method Summary: Ca2+ mobilization experiment for the MCH-1 receptor (FLIPR), inhibition of MCH-induced Ca2+ mobilization
- Type: cell-based
- Condition Context: CHO cells stably expressing human MCH-1 receptor, inhibition of MCH-induced Ca2+ response, read-out: MCH-1 pIC50 (converted)
Answers are plain numbers, in nM.

These solved cases illustrate the format of a correct answer.
{"Molecule": "O=c1c(NCCc2ccccc2)nccn1CCc1ccc(CN2CCCC2)cc1", "Unit Abbrev": "nM", "IC50": 20}
{"Molecule": "COc1cc(-n2ccnc(NCCc3ccccc3)c2=O)ccc1OCCN1CCC2(CC1)OCCO2", "Unit Abbrev": "nM", "IC50": 50.1}
{"Molecule": "COc1cc(-n2ccnc(NCCc3ccccc3)c2=O)ccc1OCCN1CCCC1", "Unit Abbrev": "nM", "IC50": 39.8}
{"Molecule": "CNC1CCN(c2ccc(-n3ccnc(NCCOc4ccccc4)c3=O)cc2OC)C1 (stereo not drawn)", "Unit Abbrev": "nM", "IC50": 20}
{"Molecule": "COc1cc(-n2ccnc(NCCc3ccccc3)c2=O)ccc1OCCN1CCC(C(=O)NC2CC2)CC1", "Unit Abbrev": "nM", "IC50": 20}
{"Molecule": "COc1cc(-n2ccnc(NCCc3ccccc3)c2=O)ccc1NC1CCNC1 (stereo not drawn)", "Unit Abbrev": "nM", "IC50": 200}

Can you give me IC50 for all of these, one by one?
1. O=c1c(NCCOc2ccccc2)nccn1-c1ccc(OCCN2CCCC2)c(CO)c1
2. COc1cc(-n2ccnc(SCCc3ccccc3)c2=O)ccc1N1CCC(N(C)C(C)=O)C1 (stereo not drawn)

[126, 31.6]

Return IC50 for the following molecule: COc1cc(-n2ccnc(NCCc3ccccc3)c2=O)ccc1OCCN1[C@H](C)CCC[C@@H]1C 31.6

====

Field: melting point. Provide a value for each of the compounds that follow.
Numbers only, in °C.

In the examples that follow, each entry is paired with its recorded melting point.
{"Compound": "COc1cc(-n2ccnc(SCCc3ccccc3)c2=O)ccc1N1CCC(N(C)C(C)=O)C1 (stereo not shown) [6-08]", "Endpoint": "melting point", "Assay Result": 105.5}
{"Compound": "COc1cc(-n2ccnc(SCCc3ccccc3)c2=O)ccc1N1CCC(N(C)C)C1 (stereo not shown) [6-07]", "Endpoint": "melting point", "Assay Result": 126.5}

We now examine a further compound.
For the compound CC(=O)N1CCN(CCOc2ccc(-n3ccnc(NCCc4ccccc4)c3=O)cc2Cl)CC1 [3-83] , give its reported melting point. 121.8

From: patent US8329704B2
